measured-on: human α4β7 integrin (Homo sapiens, UniProt P13612+P26010)
Sequence (P13612 34-1032): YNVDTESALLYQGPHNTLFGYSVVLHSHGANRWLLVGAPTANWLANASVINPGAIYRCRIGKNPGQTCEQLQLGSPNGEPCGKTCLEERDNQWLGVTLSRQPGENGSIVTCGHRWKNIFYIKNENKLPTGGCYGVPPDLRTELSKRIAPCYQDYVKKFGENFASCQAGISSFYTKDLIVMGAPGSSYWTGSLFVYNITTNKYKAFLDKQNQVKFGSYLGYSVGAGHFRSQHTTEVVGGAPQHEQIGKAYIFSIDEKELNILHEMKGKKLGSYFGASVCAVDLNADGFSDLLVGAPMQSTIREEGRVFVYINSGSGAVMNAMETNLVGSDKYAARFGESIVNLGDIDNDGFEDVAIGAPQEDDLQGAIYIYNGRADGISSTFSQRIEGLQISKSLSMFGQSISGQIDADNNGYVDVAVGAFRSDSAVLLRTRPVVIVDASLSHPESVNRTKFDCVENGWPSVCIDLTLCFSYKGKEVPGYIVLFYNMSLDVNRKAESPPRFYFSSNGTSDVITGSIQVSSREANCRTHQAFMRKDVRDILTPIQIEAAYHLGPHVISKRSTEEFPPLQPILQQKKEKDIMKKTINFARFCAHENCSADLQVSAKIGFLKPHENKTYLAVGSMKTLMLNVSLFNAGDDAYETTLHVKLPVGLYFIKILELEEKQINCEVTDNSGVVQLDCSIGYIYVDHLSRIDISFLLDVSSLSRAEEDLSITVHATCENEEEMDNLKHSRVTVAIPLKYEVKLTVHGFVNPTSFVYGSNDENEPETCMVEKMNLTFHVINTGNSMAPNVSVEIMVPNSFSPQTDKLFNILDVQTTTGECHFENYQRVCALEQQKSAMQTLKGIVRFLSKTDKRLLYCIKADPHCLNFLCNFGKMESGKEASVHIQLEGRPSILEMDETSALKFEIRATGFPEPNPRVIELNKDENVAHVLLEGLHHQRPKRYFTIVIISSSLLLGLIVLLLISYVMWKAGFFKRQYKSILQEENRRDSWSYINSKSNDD
Sequence (P26010 20-798): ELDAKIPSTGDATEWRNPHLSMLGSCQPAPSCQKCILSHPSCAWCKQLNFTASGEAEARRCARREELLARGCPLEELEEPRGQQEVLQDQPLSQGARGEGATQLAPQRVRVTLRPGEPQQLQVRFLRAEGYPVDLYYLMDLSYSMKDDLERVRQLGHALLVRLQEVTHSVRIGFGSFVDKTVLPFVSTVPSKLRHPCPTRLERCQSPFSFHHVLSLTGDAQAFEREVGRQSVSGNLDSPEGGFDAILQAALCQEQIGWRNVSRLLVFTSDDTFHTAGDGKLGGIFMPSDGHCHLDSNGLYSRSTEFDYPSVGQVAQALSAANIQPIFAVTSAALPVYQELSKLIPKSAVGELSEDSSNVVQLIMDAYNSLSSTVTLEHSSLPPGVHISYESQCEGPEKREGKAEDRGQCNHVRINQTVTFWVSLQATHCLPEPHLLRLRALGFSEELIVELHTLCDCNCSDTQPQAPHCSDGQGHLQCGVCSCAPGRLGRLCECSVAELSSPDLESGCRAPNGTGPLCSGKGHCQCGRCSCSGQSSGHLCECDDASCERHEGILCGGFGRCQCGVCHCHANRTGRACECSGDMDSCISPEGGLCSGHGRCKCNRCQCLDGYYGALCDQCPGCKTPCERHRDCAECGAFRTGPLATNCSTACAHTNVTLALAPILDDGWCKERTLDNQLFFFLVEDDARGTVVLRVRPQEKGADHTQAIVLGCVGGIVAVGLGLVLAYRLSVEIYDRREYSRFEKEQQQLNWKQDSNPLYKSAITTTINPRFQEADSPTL
measurement-protocol: α4β7-K562 Cell Adhesion Assay (α4β7 Mediated Adhesion/MAdCAM-1)
condition: K562 cells expressing human α4β7 adhering to FLAG-hMAdCAM-1, 1 mM Mn2+
Description: α4β7-K562 Cell Adhesion Assay (α4β7 Mediated Adhesion/MAdCAM-1) M2 anti-FLAG Antibody Coated 96-well plates (Sigma) were coated for 1 hour at 4° C. with 2-8 μL/well recombinant FLAG-hMAdCAM-1 contained in 100 μL of Dulbecco's PBS, pH 7.4, with 1% BSA and 1 mM Mn^2+ (PBS-BSA-Mn). Plates were washed once with PBS-BSA-Mn. […] The plate was read on a 96-well fluorescent plate reader at 485 nm excitation and 530 nm emission.
pIC50: −log10 of the molar value.

molecule: COc1cnn(C)c(=O)c1-c1ccc(C[C@H](NC(=O)N(C)C2CCN(Cc3ccccc3)C2)C(=O)O)cc1 (stereo partly shown) [Cpd 35]
pIC50: 5.74
--
molecule: COc1cnn(C)c(=O)c1-c1ccc(C[C@H](NC(=O)N[C@@H]2CS(=O)(=O)C[C@H]2O)C(=O)O)cc1 [Cpd 36]
pIC50: 6.17
--
molecule: COc1cnn(C)c(=O)c1-c1ccc(C[C@H](NC(=O)N2CCN(C)CC2)C(=O)O)cc1 [Cpd 5]
pIC50: 6.33
--
molecule: COc1cnn(C)c(=O)c1-c1ccc(C[C@H](NC(=O)NCCO)C(=O)O)cc1 [Cpd 7]
pIC50: 6.10
